Recorded koff values for a group of variants are listed next.
B1: BMPRII extracellular domain (ECD), wild type [human] / BMP10 growth factor (GF)-domain from Pro:BMP10 made in HEK EBNA cells [human] (parent complex)
chain 1: SQNQERLCAFKDPYQQDLGIGESRISHENGTILCSKGSTCYGLWEKSKGDINLVKQGCWSHIGDPQECHYEECVVTTTPPSIQNGTYRFCCCSTDLCNVNFTENFPPPDTTPLSPPHSFNRDET
chain 2: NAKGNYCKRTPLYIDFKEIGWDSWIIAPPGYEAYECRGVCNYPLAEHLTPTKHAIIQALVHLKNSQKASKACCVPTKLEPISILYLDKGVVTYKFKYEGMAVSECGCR

# Variants of: B1
# assay explanation: SPR (Biacore); BMP10 immobilised on a CM5 Biacore chip; parent: 0.161
parameter measured: koff (s⁻¹)

INSERT INTO assay_data (mutation_key, value_observed) VALUES
  ('chain 1 G63E', 0.609),
  ('chain 1 S81P', 0.0423),
  ('chain 1 G63A', 0.331),
  ('chain 1 G63W', 0.433),
  ('chain 1 Q66H', 0.147),
  ('chain 1 E72K', 0.158);
